Molecular target: human AR (Homo sapiens, UniProt P10275)
Sequence (P10275 whole entry): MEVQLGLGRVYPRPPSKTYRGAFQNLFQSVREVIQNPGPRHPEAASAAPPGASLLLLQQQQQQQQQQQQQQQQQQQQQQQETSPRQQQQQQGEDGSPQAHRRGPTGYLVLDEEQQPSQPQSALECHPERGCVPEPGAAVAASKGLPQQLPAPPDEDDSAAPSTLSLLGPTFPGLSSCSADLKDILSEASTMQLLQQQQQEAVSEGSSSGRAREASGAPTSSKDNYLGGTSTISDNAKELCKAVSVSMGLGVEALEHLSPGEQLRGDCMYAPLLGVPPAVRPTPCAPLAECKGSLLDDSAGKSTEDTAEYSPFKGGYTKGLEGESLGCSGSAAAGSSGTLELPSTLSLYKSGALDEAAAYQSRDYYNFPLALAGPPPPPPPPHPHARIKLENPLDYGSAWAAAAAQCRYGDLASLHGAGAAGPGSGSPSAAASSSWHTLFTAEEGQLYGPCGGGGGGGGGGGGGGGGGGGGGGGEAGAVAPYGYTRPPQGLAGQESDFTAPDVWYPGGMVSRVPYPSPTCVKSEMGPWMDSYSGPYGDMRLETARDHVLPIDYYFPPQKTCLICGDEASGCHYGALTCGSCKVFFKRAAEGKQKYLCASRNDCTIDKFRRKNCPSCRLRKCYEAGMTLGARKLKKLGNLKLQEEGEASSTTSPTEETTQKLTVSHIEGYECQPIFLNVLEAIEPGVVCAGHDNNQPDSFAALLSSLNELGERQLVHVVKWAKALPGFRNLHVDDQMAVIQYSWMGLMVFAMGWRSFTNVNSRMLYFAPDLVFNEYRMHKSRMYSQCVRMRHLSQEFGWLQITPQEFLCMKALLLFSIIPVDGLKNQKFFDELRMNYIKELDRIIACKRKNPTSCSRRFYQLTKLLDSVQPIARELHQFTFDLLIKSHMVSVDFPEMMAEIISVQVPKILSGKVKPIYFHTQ
Experiment: co-transfection assay, hAR in CV-1 cells (MTV-LUC reporter)
Listed next: entries and their corresponding EC50.
PROPERTY NAME: EC50

> print(dat)
                                    compound  recorded.measurement
 1  CC[C@@H]1COc2c(ccc3[nH]c(=O)cc(C(F)(F)F)c23)N1                301 nM
 2  CCCC1COc2c(ccc3[nH]c(=O)cc(C(F)(F)F)c23)N1 (racemic)            > 10000 nM
 3  C[C@@H]1COc2c(ccc3[nH]c(=O)cc(C(F)(F)F)c23)N1C            > 10000 nM
 4  C=CCN1c2ccc3[nH]c(=O)cc(C(F)(F)F)c3c2OC[C@H]1CC                 53 nM
 5  CC[C@@H]1COc2c(ccc3[nH]c(=O)cc(C(F)(F)F)c23)N1CC(F)(F)F                0.6 nM
 6  CCCC1COc2c(ccc3[nH]c(=O)cc(C(F)(F)F)c23)N1C (racemic)            > 10000 nM
 7  C=CCN1c2ccc3[nH]c(=O)cc(C(F)(F)F)c3c2OC[C@H]1C(C)C                 35 nM
 8  CC(C)[C@@H]1COc2c(ccc3[nH]c(=O)cc(C(F)(F)F)c23)N1CC(F)(F)Cl                  2 nM
 9  C[C@@H]1COc2c(ccc3[nH]c(=O)cc(C(F)(F)F)c23)N1CC(F)(F)F                  7 nM
10  CN1CC(C)(C)Oc2c1ccc1[nH]c(=O)cc(C(F)(F)F)c21            > 10000 nM
11  CCN1c2ccc3[nH]c(=O)cc(C(F)(F)F)c3c2OC[C@H]1C(C)C                270 nM
12  CC[C@@H]1COc2c(ccc3[nH]c(=O)cc(C(F)(F)F)c23)N1CC                411 nM
13  C[C@@H]1Oc2c(ccc3[nH]c(=O)cc(C(F)(F)F)c23)N(CC(F)(F)F)[C@@H]1C (racemic)                 34 nM

---

Target: human AR (Homo sapiens, UniProt P10275)
Construct: expressed in transfected cells; host or cells: CV-1 cells (African green monkey kidney fibroblasts)
Test: co-transfection assay, hAR in CV-1 cells (MTV-LUC reporter)
Format: cell-based
Details: agonist mode; luciferase production relative to DHT; hAR in CV-1 cells
From the text: The co-transfection assay provides a method for identifying functional agonists and partial agonists that mimic, or antagonists that inhibit, the effect of native hormones and quantifying their activity for responsive IR proteins. In this regard, the co-transfection assay mimics an in vivo system in the laboratory. […]
# cutoff 60% applies to AR Agonist CV-1 Cells Efficacy; >= gives T, < gives F

> print(dat)
                              record.smiles  assigned.label
1  C=CCN1c2ccc3[nH]c(=O)cc(C(F)(F)F)c3c2OC[C@H]1CC               T
2  CC(C)[C@@H]1COc2c(ccc3[nH]c(=O)cc(C(F)(F)F)c23)N1CC(F)(F)Cl               T
3  CCN1c2ccc3[nH]c(=O)cc(C(F)(F)F)c3c2OC[C@H]1C(C)C               T
4  CC[C@@H]1COc2c(ccc3[nH]c(=O)cc(C(F)(F)F)c23)N1CC               F
5  CC[C@@H]1COc2c(ccc3[nH]c(=O)cc(C(F)(F)F)c23)N1               F

Data provenance: patent US7214690B2
